- target-under-test: HDAC3 (Homo sapiens, UniProt O15379)
- Construct: purchased Reaction Biology Corporation (assay run by the CRO)
- Sequence (O15379 whole entry): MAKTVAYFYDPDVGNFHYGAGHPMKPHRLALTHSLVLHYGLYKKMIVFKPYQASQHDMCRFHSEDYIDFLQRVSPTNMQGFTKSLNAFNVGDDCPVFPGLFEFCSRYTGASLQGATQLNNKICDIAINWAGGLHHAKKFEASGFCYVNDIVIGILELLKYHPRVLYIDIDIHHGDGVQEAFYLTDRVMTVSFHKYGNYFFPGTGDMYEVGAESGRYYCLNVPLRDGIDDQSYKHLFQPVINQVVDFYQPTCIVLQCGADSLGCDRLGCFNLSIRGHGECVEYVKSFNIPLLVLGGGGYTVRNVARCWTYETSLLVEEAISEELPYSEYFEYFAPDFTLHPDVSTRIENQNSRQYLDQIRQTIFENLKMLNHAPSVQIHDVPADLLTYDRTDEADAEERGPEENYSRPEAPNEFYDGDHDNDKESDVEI
- Sequence (Q9Y618 395-489 partner limits assumed): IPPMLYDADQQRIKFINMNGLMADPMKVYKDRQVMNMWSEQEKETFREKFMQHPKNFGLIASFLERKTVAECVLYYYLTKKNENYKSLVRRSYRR
- assay-summary: HDAC3 inhibition, full IC50 measurement (Reaction Biology; fluorogenic p53 peptide RHKK(Ac)AMC)
- Assay type: biochemical
- condition-notes: Conc. 1.00E-05 M, t1
Peptide text beside a SMILES is read from it.
Entries and their HDAC3 activity raw data (signal)
parameter-measured: HDAC3 activity raw data (signal)

N=C(N)NCCC[C@@H]1NC(=O)[C@@H](CCCNC(=N)N)NC(=O)[C@H]2CCCN2C(=O)[C@@H](Cc2c[nH]cn2)NC(=O)[C@H](Cc2ccc(O)cc2)NC(=O)[C@H](CCCCCS)NC(=O)[C@H](CCc2ccccc2)NC(=O)[C@@H](CO)NC(=O)[C@H](CC(=O)O)NC1=O [des3.3.1, SHA-Tyr-dHis-dPro-dArg-Arg-Asp-dSer-C27] (HELM PEPTIDE1{[O=C([C@H](CCCCCS)N[*:1])[*:2]].Y.[dH].[dP].[dR].R.D.[dS].[O=C([C@H](CCc1ccccc1)N[*:1])[*:2]]}$PEPTIDE1,PEPTIDE1,1:R1-9:R2$$$V2.0) : -3010
N=C(N)NCCC[C@@H]1NC(=O)[C@H](Cc2c[nH]c3ccccc23)NC(=O)[C@H](CC(=O)O)NC(=O)[C@@H](CO)NC(=O)[C@H](Cc2c[nH]c3ccccc23)NC(=O)[C@H](CCCCCS)NC(=O)[C@H](CCC(N)=O)NC1=O [des4.1.0, SHA-Trp-dSer-Asp-Trp-Arg-Gln] (HELM PEPTIDE1{D.W.R.Q.[O=C([C@H](CCCCCS)N[*:1])[*:2]].W.[dS]}$PEPTIDE1,PEPTIDE1,1:R1-7:R2$$$V2.0) : -1388
CCCC[C@H]1NC(=O)[C@H](Cc2ccccc2)NC(=O)[C@H](CCCCCS)NC(=O)[C@@H](CCCNC(=N)N)NC(=O)[C@H](CC(=O)O)NC(=O)[C@@H](CO)NC(=O)[C@@H](C)NC(=O)[C@H](CCCCN)NC1=O [des4.3.1, SHA-Phe-dNle-Lys-dAla-dSer-Asp-dArg] (HELM PEPTIDE1{D.[dR].[O=C([C@H](CCCCCS)N[*:1])[*:2]].F.[CCCC[C@@H](N[*:1])C(=O)[*:2]].K.[dA].[dS]}$PEPTIDE1,PEPTIDE1,1:R1-8:R2$$$V2.0) : 46115
NCCCC[C@@H]1NC(=O)[C@@H]2C[C@@H](O)CN2C(=O)[C@H](CC(N)=O)NC(=O)[C@H](CCCCCS)NC(=O)CNC(=O)[C@H](Cc2c[nH]c3ccccc23)NC(=O)[C@@H](CCCCN)NC(=O)[C@H](CCC(N)=O)NC1=O [des1.1.2, SHA-Asn-Hpr-Lys-Gln-dLys-Trp-Gly] (HELM PEPTIDE1{G.[O=C([C@H](CCCCCS)N[*:1])[*:2]].N.[Hyp].K.Q.[dK].W}$PEPTIDE1,PEPTIDE1,1:R1-8:R2$$$V2.0) : 22366
CC(C)C[C@H]1NC(=O)[C@H](Cc2c[nH]c3ccccc23)NC(=O)[C@H](CCCCCS)NC(=O)[C@@H](Cc2ccc(O)cc2)NC(=O)[C@@H](C(C)C)NC(=O)[C@H](Cc2c[nH]cn2)NC(=O)CNC(=O)CNC(=O)[C@@H](CO)NC1=O [des2.2.0, SHA-Trp-dLeu-dSer-Gly-Gly-His-dVal-dTyr] (HELM PEPTIDE1{G.G.H.[dV].[dY].[O=C([C@H](CCCCCS)N[*:1])[*:2]].W.[dL].[dS]}$PEPTIDE1,PEPTIDE1,1:R1-9:R2$$$V2.0) : 556301

Hello, the source for this data is paper PMC8185074, in case you need it.
